Reference for the values: patent US11040987B2

Hi there, I'd appreciate the recorded MIC for every entry that follows.
Tested on: S. aureus ATCC 29213
Test: MIC determination, broth microdilution, ESKAPE panel
Format: cell-based
Conditions: Staphylococcus aureus, ATCC29213; iron-depleted cation-adjusted Mueller-Hinton broth, 2,2-dipyridyl 160 μM; 37° C., 18-20 hours; read-out: MIC S. aureus ATCC 29213
Procedure: Minimum inhibitory concentration (MIC) is determined by a broth microdilution method according to the recommendation of the Clinical and Laboratory Standards Institute (CLSI) with minor modification. […]

{"molecule": "C[C@]1(CNc2ccc(O)c(O)c2)[C@H](C(=O)O)N2C(=O)C[C@H]2S1(=O)=O [Example 117]", "MIC": "> 128 µg/mL"}
{"molecule": "C[C@]1(COC(=O)NNC(=O)c2ccc(O)c(O)c2Cl)[C@H](C(=O)O)N2C(=O)C[C@H]2S1(=O)=O [Example 70]", "MIC": "> 128 µg/mL"}
{"molecule": "C[C@@H](O)[C@H]1C(=O)N2C(C(=O)O)=C(SCCN=CN)C[C@H]12 [Imipenem, reference compound]", "MIC": "< 0.06 µg/mL"}
{"molecule": "C[C@]1(/C=N/NC(=O)CCNC(=O)c2ccc(O)c(O)c2Cl)[C@H](C(=O)O)N2C(=O)C[C@H]2S1(=O)=O [Example 60]", "MIC": "> 128 µg/mL"}
{"molecule": "CN(NC(=O)c1ccc(O)c(O)c1)C(=O)OC[C@@]1(C)[C@H](C(=O)O)N2C(=O)C[C@H]2S1(=O)=O [Example 76]", "MIC": "> 128 µg/mL"}
{"molecule": "C[C@]1(/C=N/NC(=O)c2cccc(O)c2O)[C@H](C(=O)O)N2C(=O)C[C@H]2S1(=O)=O [Example 28]", "MIC": "> 128 µg/mL"}

Required: MIC, one value per molecule below.
1. C[C@]1(/C=N/NC(=O)c2ccc(O)cc2)[C@H](C(=O)O)N2C(=O)C[C@H]2S1(=O)=O [Example 29]
2. C[C@]1(/C=N/NC(=O)[C@H](CO)NC(=O)c2ccc(O)c(O)c2Cl)[C@H](C(=O)O)N2C(=O)C[C@H]2S1(=O)=O [Example 43]

-- reply
1: > 128 µg/mL; 2: > 128 µg/mL

Required: MIC, one value per molecule below.
1. CN(NC(=O)OC[C@@]1(C)[C@H](C(=O)O)N2C(=O)C[C@H]2S1(=O)=O)C(=O)c1ccc(O)c(O)c1Cl [Example 77]
2. CN(NC(=O)c1ccc(O)c(O)c1Cl)C(=O)OC[C@@]1(C)[C@H](C(=O)O)N2C(=O)C[C@H]2S1(=O)=O [Example 80]

-- reply
1: > 128 µg/mL; 2: > 128 µg/mL

Required: MIC, one value per molecule below.
1. C[C@]1(c2cc(C(=O)c3ccc(O)c(O)c3)on2)[C@H](C(=O)O)N2C(=O)C[C@H]2S1(=O)=O [Example 112]
2. C[C@]1(/C=N/OCCNC(=O)c2ccc(O)c(O)c2Cl)[C@H](C(=O)O)N2C(=O)C[C@H]2S1(=O)=O [Example 118]

-- reply
> 64 µg/mL
> 128 µg/mL

====

Tested on: A.b TNP 41708
Experiment: MIC against A. baumannii clinical isolates, alone and in combination with antibiotics
Assay type: cell-based
Conditions: Acinetobacter baumannii, TNP41708, read-out: MIC A.b TNP 41708
Hi there, I'd appreciate the recorded MIC for every entry that follows.

Example results:
{"compound": "C[C@]1(COC(=O)c2ccc(O)c(O)c2Cl)[C@H](C(=O)O)N2C(=O)C[C@H]2S1(=O)=O [Example 114]", "MIC": "> 128 µg/mL"}
{"compound": "CN(NC(=O)c1ccc(O)c(O)c1Cl)C(=O)OC[C@@]1(C)[C@H](C(=O)O)N2C(=O)C[C@H]2S1(=O)=O [Example 80]", "MIC": "> 128 µg/mL"}
{"compound": "C[C@]1(/C=N/NC(=O)C2CCN(C(=O)c3ccc(O)c(O)c3Cl)CC2)[C@H](C(=O)O)N2C(=O)C[C@H]2S1(=O)=O [Example 42]", "MIC": "> 128 µg/mL"}

Required: MIC, one value per compound below.
1. CN(NC(=O)OC[C@@]1(C)[C@H](C(=O)O)N2C(=O)C[C@H]2S1(=O)=O)C(=O)c1ccc(O)c(O)c1Cl [Example 77]
2. C[C@]1(CNc2ccc(O)c(O)c2)[C@H](C(=O)O)N2C(=O)C[C@H]2S1(=O)=O [Example 117]
3. C[C@]1(/C=N/NC(=O)C2CCN(C(=O)c3ccc(O)c(O)c3Cl)C2)[C@H](C(=O)O)N2C(=O)C[C@H]2S1(=O)=O (some centres unmarked) [Example 38]
4. CN(NC(=O)c1ccc(O)c(O)c1)C(=O)OC[C@@]1(C)[C@H](C(=O)O)N2C(=O)C[C@H]2S1(=O)=O [Example 76]
5. C[C@]1(c2cc(C(=O)c3ccc(O)c(O)c3)on2)[C@H](C(=O)O)N2C(=O)C[C@H]2S1(=O)=O [Example 112]
6. C[C@]1(/C=N/NC(=O)Cc2ccc(O)c(O)c2)[C@H](C(=O)O)N2C(=O)C[C@H]2S1(=O)=O [Example 20]

-- reply
1: > 128 µg/mL; 2: 128 µg/mL; 3: > 128 µg/mL; 4: > 128 µg/mL; 5: > 64 µg/mL; 6: > 128 µg/mL

Required: MIC, one value per compound below.
1. C[C@]1(/C=N/NC(=O)CCNC(=O)c2ccc(O)c(O)c2Cl)[C@H](C(=O)O)N2C(=O)C[C@H]2S1(=O)=O [Example 60]
2. C[C@]1(/C=N/NC(=O)c2cccc(O)c2O)[C@H](C(=O)O)N2C(=O)C[C@H]2S1(=O)=O [Example 28]

-- reply
["> 128 µg/mL", "> 128 µg/mL"]
